- procedure-text: Quantitative High-Throughput drug screen in 47 multiple myeloma cell lines against the NCATS MIPE library collection: KMS11_JCRBsus cell viability assay (AID 1919873); note: nearly all actives have a fitted effect of over 50% in size; note: potency is the fitted concentration of half-maximal effect
- test-parameters: KMS11 myeloma viability, CellTiter-Glo ATP luminescence, 48 h; series mostly up to 45.8 µM
Inconclusive results are not listed. Active and inactive are the calls of the source. Calls come from the whole dose curve; as a rule, active = well fitted cell-killing curve with a large enough effect; inconclusive = small, poorly fitted or top-dose-only effect, or effect the other way; inactive = no such curve, though single readings can be large or run the other way.
outcome-measure: Potency

Solved entries (count: 5):
compound: CN1CCN(c2ccc([N+](=O)[O-])c3no[n+]([O-])c23)CC1
Potency: 23500 nM (active)
//
compound: CC(C)N(CCNC(=O)CN1CCCC1=O)C(C)C
Potency: inactive
//
compound: CN(C)[C@@H]1C(=O)C(C(N)=O)=C(O)[C@@]2(O)C(=O)C3=C(O)c4c(O)cccc4[C@@](C)(O)[C@H]3[C@H](O)[C@@H]12
Potency: inactive
//
compound: CC(=Cc1csc(C)n1)[C@@H]1C[C@H]2O[C@]2(C)CCC[C@H](C)[C@@H](O)[C@@H](C)C(=O)C(C)(C)[C@@H](O)CC(=O)O1
Potency: inactive
//
compound: CCNC(=O)C[C@@H]1N=C(c2ccc(Cl)cc2)c2cc(OC)ccc2-n2c(C)nnc21
Potency: 105 nM (active)

Which Potency is reported for this compound? "C[C@H]([C@H](O)CCC(C)(C)O)[C@H]1CC[C@@]2(O)C3=CC(=O)[C@@H]4C[C@@H](O)[C@@H](O)C[C@]4(C)[C@@H]3CC[C@]12C"
inactive

Same question for "O=S(=O)(F)Cc1ccccc1" please.
inactive

Same question for "COc1cccc2c1[C@]13CCN(CC4CC4)[C@H](C2)[C@]1(OC)CCC(=O)C3" please.
inactive

Same question for "CC1=NN=C(c2ccc(N)cc2)c2cc3c(cc2C1)OCO3" please.
inactive

Same question for "COC1=CC(C)=C[C@@H](C)[C@@H](O)[C@@H](C)CC(C)=CC=C[C@H](OC)[C@H]([C@@H](C)[C@@H](O)[C@H](C)[C@@]2(O)C[C@@H](O)[C@H](C)[C@@H](C(C)C)O2)OC1=O" please.
1.9 nM (active)

Same question for "N#C[C@H](O[C@@H]1O[C@H](CO[C@@H]2O[C@H](CO)[C@H](O)[C@H](O)[C@H]2O)[C@H](O)[C@H](O)[C@H]1O)c1ccccc1" please.
7430 nM (active)

Same question for CO[C@H]1CCC(O[C@H]2C[C@H]([C@]3(C)CC[C@]4(C[C@H](O)[C@@H](C)[C@@H]([C@@H](C)C=C(C)C(=O)[C@H](C)C[C@H](C)C(=O)O)O4)O3)O[C@]3(O[C@@H]([C@H]4O[C@@](O)(CO)[C@H](C)C[C@H]4C)C[C@H]3C)[C@H]2C)O[C@H]1C (stereo partly drawn) please.
935 nM (active)

Same question for "COc1ccc(N(C(=O)Oc2c(C)cccc2C)c2ccnc(Nc3ccc(N4CCN(C)CC4)cc3)n2)c(OC)c1" please.
9350 nM (active)

Same question for COc1ccc(CC2NCCc3cc(OC)c(OC)cc32)cc1OC (stereo not drawn) please.
inactive

Same question for "COC(=O)[C@@H](N)CCCN=C(N)N[N+](=O)[O-]" please.
inactive

Provenance of the data: PubChem BioAssay (NCATS)
